// data source = patent US10160771B2

Assay: Cell Titer-fluor cell activity assay in HCV-1b replicon cells (CC50)
Type: cell-based
Consider the following compounds; for each one, report its CC50 at 3 days.

Examples with their reported CC50 at 3 days follow.
Record request: CC50 at 3 days value, item COC(=O)N[C@H](C(=O)N1CCC[C@H]1c1ncc(-c2ccc(-c3ccc(-c4cnc(C5C6CCC(C6)[C@@H]5C(=O)N(NC(=O)OC)C(C)C)[nH]4)cc3)cc2Cl)[nH]1)C(C)C (stereo partly shown)
> 1 nM

Record request: CC50 at 3 days value, item COC(=O)N[C@H](C(=O)N1CCC[C@H]1c1ncc(-c2ccc(-c3ccc(-c4cnc(C5C6CCC(C6)[C@@H]5C(=O)NCc5cnccn5)[nH]4)cc3)cc2)[nH]1)[C@@H](C)OC (stereo partly shown)
> 1 nM

Record request: CC50 at 3 days value, item COC(=O)N[C@H](C(=O)N1CCC[C@H]1c1ncc(-c2ccc(-c3ccc(-c4cnc(C5C6CCC(C6)[C@@H]5C(=O)N(NC(=O)OC)C(C)C)[nH]4)cc3)cc2)[nH]1)C(C)C (stereo partly shown)
> 10 nM

Record request: CC50 at 3 days value, item COC(=O)N[C@H](C(=O)N1CCC[C@H]1c1ncc(-c2ccc(-c3ccc(-c4cnc([C@H]5C6CCC(C6)[C@@H]5C(=O)N(C)c5ccccn5)[nH]4)cc3)cc2)[nH]1)C(C)C (stereo partly shown)
> 1 nM

Record request: CC50 at 3 days value, item COC(=O)N[C@H](C(=O)N1CCC[C@H]1c1ncc(-c2ccc(-c3ccc(-c4cnc(C5C6CCC(C6)[C@@H]5C(=O)NNc5nccnc5Cl)[nH]4)cc3)cc2)[nH]1)[C@@H](C)OC (stereo partly shown)
> 1 nM

List CC50 at 3 days for every entry below, keeping the order given.
1. COC(=O)N[C@H](C(=O)N1CCC[C@H]1c1ncc(-c2ccc(-c3ccc(-c4cnc([C@H]5C6CCC(C6)[C@@H]5C(=O)NCc5ccc(C(F)(F)F)nc5)[nH]4)cc3)cc2)[nH]1)C(C)C (stereo partly shown)
2. COC(=O)N[C@H](C(=O)N1CCC[C@H]1c1ncc(-c2ccc(-c3ccc(-c4cnc(C5CC(F)(F)C[C@H]5C(=O)N(NC(=O)OC)C(C)C)[nH]4)cc3)cc2)[nH]1)C(C)C (stereo partly shown)
3. COC(=O)N[C@H](C(=O)N1CCC[C@H]1c1ncc(-c2ccc(-c3ccc(-c4cnc(C5C6CCC(C6)[C@@H]5C(=O)NCc5ccc(C(C)C)nc5)[nH]4)cc3)cc2)[nH]1)[C@@H](C)OC (stereo partly shown)
4. COC(=O)N[C@H](C(=O)N1CCC[C@H]1c1ncc(-c2ccc(-c3ccc(-c4cnc([C@H]5C6CCC(C6)[C@@H]5C(=O)NCc5cccnc5)[nH]4)cc3)cc2C)[nH]1)C(C)C (stereo partly shown)
5. COC(=O)N[C@H](C(=O)N1CCC[C@H]1c1ncc(-c2ccc(-c3ccc(-c4cnc([C@@H]5[C@H]6CC[C@H](C6)[C@H]5C(=O)N[C@H](CO)c5cccnc5)[nH]4)cc3)cc2)[nH]1)C(C)C [AA_243_ENDOA2_B]

1: > 1 nM; 2: > 100 nM; 3: > 1 nM; 4: > 1 nM; 5: > 1 nM

###

Assay: Cell Titer-fluor cell activity assay in HCV-1b replicon cells (CC50)
Assay type: cell-based
QUANTITY MEASURED: CC50 at 3 days

Examples with their reported CC50 at 3 days follow.
Record request: CC50 at 3 days value, item COC(=O)NC(C(=O)N1CCCC1c1ccc(-c2ccc(-c3ccc(-c4[nH]c(C5CCCN5C(=O)[C@H](NC(=O)OC)C(C)C)c5c4CCC5)cc3)cc2)[nH]1)C1CCOCC1 (stereo partly shown)
> 10 nM

Record request: CC50 at 3 days value, item COC(=O)NC(C(=O)N1CCCC1c1ccc(-c2ccc3c(c2)C(C)(C)c2cc(-c4cnc([C@@H]5CCCN5C(=O)[C@@H](NC(=O)OC)C(C)C)[nH]4)ccc2-3)[nH]1)[C@@H](C)OC (stereo partly shown)
> 1 nM

Record request: CC50 at 3 days value, item COC(=O)N[C@H](C(=O)N1CCC[C@H]1c1ncc(-c2ccc(-c3ccc(-c4cnc(C5C6CCC(C6)[C@H]5C(=O)NNc5nccnc5Cl)[nH]4)cc3)cc2)[nH]1)[C@@H](C)OC (stereo partly shown)
> 1 nM

Record request: CC50 at 3 days value, item COC(=O)N[C@H](C(=O)N1CCC[C@H]1c1ncc(-c2ccc(-c3ccc(-c4cnc([C@H]5C6CCC(C6)[C@@H]5C(=O)NCCc5ccncc5)[nH]4)cc3)cc2)[nH]1)C(C)C (stereo partly shown)
> 1 nM

Record request: CC50 at 3 days value, item COC(=O)N[C@H](C(=O)N1CCC[C@H]1c1[nH]c(-c2ccc(-c3ccc(-c4cnc([C@@H]5CCCCN5C(=O)[C@@H](NC(=O)OC)[C@@H](C)OC)[nH]4)cc3)cc2)c2c1COC2)C(C)OC (stereo partly shown)
> 1 nM

List CC50 at 3 days for every entry below, keeping the order given.
1. COC(=O)N[C@H](C(=O)N1CCC[C@H]1c1[nH]c(-c2ccc(-c3ccc(-c4cnc([C@@H]5CCCN5C(=O)[C@@H](NC(=O)OC)[C@@H](C)OC)[nH]4)cc3)cc2)c2c1COC2)C(C)C
2. COC(=O)N[C@H](C(=O)N1C[C@@H](OC)C[C@H]1c1ncc(-c2ccc(-c3ccc(-c4cnc([C@H]5C6CCC(C6)[C@@H]5C(=O)NCc5cccnc5)[nH]4)cc3)cc2)[nH]1)C(C)C (stereo partly shown)
3. COC(=O)N[C@H](C(=O)N1CCC[C@H]1c1ncc(-c2ccc(-c3ccc(-c4cnc(C5C6CCC(C6)[C@H]5C(=O)NCCc5ccncc5)[nH]4)cc3)cc2)[nH]1)[C@@H](C)OC (stereo partly shown)

1. > 5 nM
2. > 1 nM
3. > 1 nM

List CC50 at 3 days for every entry below, keeping the order given.
1. COC(=O)N[C@H](C(=O)N1CCC[C@H]1c1ncc(-c2ccc(-c3ccc(-c4cnc(C5C6CCC(C6)[C@@H]5C(=O)NCc5cccnc5F)[nH]4)cc3)cc2)[nH]1)[C@@H](C)OC (stereo partly shown)
2. COC(=O)N[C@H](C(=O)N1CCC[C@H]1c1[nH]c(-c2ccc(-c3ccc(-c4cnc([C@@H]5CCCCN5C(=O)[C@@H](NC(=O)OC)[C@@H](C)OC)[nH]4)cc3)cc2)c2c1CCCO2)C(C)C

1: > 1 nM; 2: > 1 nM

###

Test system: HCV genotype 1b (HCV-1b) replicon cells
Assay: HCV genotype 1b replicon luciferase assay (EC50)
Type: cell-based, hepatitis C virus genotype 1b (Con1 clone)
Conditions: 3 days, luciferase (Bright-Glo)
pEC50: −log10 of the molar value.
QUANTITY MEASURED: pEC50

Record request: pEC50 value, item COC(=O)N[C@H](C(=O)N1CCC[C@H]1c1ncc(-c2ccc(-c3ccc(-c4cnc(C5C6CCC(C6)[C@@H]5C(=O)N[C@H](C)c5cccnc5)[nH]4)cc3)cc2)[nH]1)[C@@H](C)OC (single isomer, unassigned) [AA_253_C]
8.00 to 9.00

Record request: pEC50 value, item `COC(=O)N[C@H](C(=O)N1CCC[C@H]1c1ccc(-c2ccc(-c3ccc(-c4cnc([C@@H]5CCCN5C(=O)C5(NC(=O)OC)CC5)[nH]4)cc3)cc2)[nH]1)C(C)C`
10.00 to 12.00

Record request: pEC50 value, item COC(=O)NC(C(=O)N1CCCC1c1[nH]c(-c2ccc(-c3ccc(-c4cnc([C@@H]5CCCN5C(=O)[C@@H](NC(=O)OC)C(C)C)[nH]4)cc3)cc2)c2c1CCC2)C1CCOC1 (single isomer, unassigned) [AG_025_A]
10.00 to 12.00

Record request: pEC50 value, item COC(=O)N[C@H](C(=O)N1CCC[C@H]1c1ncc(-c2ccc(-c3ccc(-c4cnc(C5C6CCC(C6)[C@@H]5C(=O)NC(C)c5cnccn5)[nH]4)cc3)cc2)[nH]1)[C@@H](C)OC (single isomer, unassigned) [AA_281_A]
10.00 to 12.00

Record request: pEC50 value, item COC(=O)N[C@H](C(=O)N1CCC[C@H]1c1ncc(-c2ccc(-c3ccc(-c4[nH]c([C@@H]5CCCN5C(=O)[C@@H](NC(=O)OC)C(C)C)c5c4OCC5)cc3)cc2)[nH]1)C(C)C [AG_114_A]
9.00 to 10.00

List pEC50 for every entry below, keeping the order given.
1. COC(=O)N[C@H](C(=O)N1CCC[C@H]1c1ncc(-c2ccc(-c3ccc(-c4[nH]c([C@@H]5CCCN5C(=O)[C@@H](NC(=O)OC)[C@@H](C)OC)c5c4COC5)cc3)cc2)[nH]1)[C@@H](C)OC
2. COC(=O)N[C@H](C(=O)N1CCCC1c1ccc(-c2ccc(-c3ccc(-c4cnc(C5CCCN5C(=O)[C@@H](NC(=O)OCCF)C(C)C)[nH]4)cc3)cc2)[nH]1)C(C)C (stereo partly drawn)
3. COC(=O)N[C@H](C(=O)N1CCC[C@H]1c1ncc(-c2ccc(-c3ccc(-c4cnc([C@H]5C6CCC(C6)[C@@H]5C(=O)NC(c5cccnc5)C(C)C)[nH]4)cc3)cc2)[nH]1)C(C)C (single isomer, unassigned) [AA_233_A]
4. COC(=O)N[C@H](C(=O)N1CCC[C@H]1c1ncc(-c2ccc(-c3ccc(-c4cnc([C@H]5C6CCC(C6)[C@@H]5C(=O)NC(c5cccnc5)C(C)C)[nH]4)cc3)cc2)[nH]1)C(C)C (single isomer, unassigned) [AA_233_C]

["10.00 to 12.00", "9.00 to 10.00", "10.00 to 12.00", "9.00 to 10.00"]
